- TARGET DESC: HLA-A*26:01
- PROCEDURE DETAILS: IEDB peptide-MHC binding, purified MHC/competitive/fluorescence; filed as Kd, often an IC50 or EC50 that approximates it; bounds were set here for any values at or beyond the usual limits of such assays
- REPORTED CONDITIONS: source organism: Ephydatia fluviatilis
pKd: −log10 of the molar value.
READOUT NAME: pKd

Q: Recall the recorded pKd for TLKPGTMSV with HLA-A*26:01 and state it.
Ans: ≤ 4.70

---

- TARGET DESC: HLA-B*15:01
- PROCEDURE DETAILS: IEDB peptide-MHC binding, purified MHC/competitive/fluorescence; filed as Kd, often an IC50 or EC50 that approximates it; bounds were set here for any values at or beyond the usual limits of such assays
- REPORTED CONDITIONS: source organism: Escherichia coli APEC O1
READOUT NAME: pKd
In plain terms, pKd is the concentration in mol/L turned into minus its base-10 logarithm.

Q: Need pKd of HESSVSWMF , thanks.
Ans: 6.17
